For each entry below, report its pIC50 value.
molecular target: EoblOBP6 (Ectropis obliqua, UniProt A0A1L2BL92); assay: Fluorescence competitive binding assay (displacement of 1-NPN from recombinant EoblOBP6); settings: Table 1 volatiles; competitor titrated 2 to 30 μM into 1-NPN and EoblOBP6 both at 2 μM, 50 mM Tris-HCl pH 7.4; read-out: IC50
Sequence (A0A1L2BL92 entry or part of it): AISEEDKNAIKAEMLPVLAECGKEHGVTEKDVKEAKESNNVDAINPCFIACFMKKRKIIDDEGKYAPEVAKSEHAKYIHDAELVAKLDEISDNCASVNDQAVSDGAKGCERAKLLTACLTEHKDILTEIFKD
Answers are plain numbers, as −log10 of the molar value.

# Smi, Numeric result
measured = [
    ("C/C1=C\\CC/C(C)=C/CC(C)(C)/C=C/C1", 4.65),
]

Continue with the compound presented below.
Data request, read-out pIC50, for C=C/C(C)=C/C/C=C(\C)CCC=C(C)C
4.80

* * *

I'd appreciate it if you could supply pKi values for the items below.
Target: EoblOBP6 (Ectropis obliqua, UniProt A0A1L2BL92)
Assay: Fluorescence competitive binding assay (displacement of 1-NPN from recombinant EoblOBP6)
Protocol: Fluorescence binding assays were performed on a fluorescence spectrophotometer F-380 (Tianjin, China) with a 1 cm light path quartz cuvette and 10 nm slits for excitation and emission. The excitation wavelength was set at 337 nm, and the emission spectrum was recorded between 390 and 500 nm. […] The fluorescence intensities at the maximum fluorescence emission were plotted against the free ligand concentration to determine the binding constants. […]
Numbers only, as −log10 of the molar value.

Solved cases below.
# Compound, pKi
measured = [
    ("O=Cc1ccccc1", 4.82),
    ("COc1ccc2cc3[n+](cc2c1OC)CCc1cc2c(cc1-3)OCO2", 5.26),
    ("C=CC(C)(O)CCC=C(C)CCC=C(C)C (mixture of isomers)", 4.96),
]

Consider now this further compound.
What measured pKi goes with CC1=CC=C(C(C)C)CC1 ?
4.74

* * *

biological target: UniProtKB A0A1L2BL92; experiment: Fluorescence competitive binding assay (displacement of 1-NPN from recombinant EoblOBP6); conditions: Table 1 volatiles; calculated from IC50: Ki = (IC50)/(1+(1-NPN)/K1-NPN); read-out: Ki
Readout kind: pKi
Answers are plain numbers, as −log10 of the molar value.

# Smi, Tested system, pKi
rows = [
    ("C=C/C(C)=C/C/C=C(\\C)CCC=C(C)C", "UniProtKB A0A1L2BL92", 4.96),
]

Note: attention shifts to another entry.
// lookup pKi for C/C1=C\CC/C(C)=C/CC(C)(C)/C=C/C1
4.81

* * *

biological target: EoblOBP6 (Ectropis obliqua, UniProt A0A1L2BL92); assay: Fluorescence competitive binding assay (displacement of 1-NPN from recombinant EoblOBP6)
Readout kind: IC50 (µM)
Give bare numbers, in µM.

Example entries begin here.
# Molecule, Unit spec, IC50
measured = [
    ("O=Cc1ccccc1 [Benzaldehyde]", "µM", 21.6),
    ("CC1=CC=C(C(C)C)CC1 [α-Terpinene]", "µM", 26.2),
    ("COc1ccc2cc3[n+](cc2c1OC)CCc1cc2c(cc1-3)OCO2 [Berberine]", "µM", 7.94),
]

I am curious: what IC50 value has been reported for C=CC(C)(O)CCC=C(C)CCC=C(C)C (mixture of isomers) [Nerolidol] ?
15.6

* * *

molecular target: EoblOBP6 (Ectropis obliqua, UniProt A0A1L2BL92); assay: Fluorescence competitive binding assay (displacement of 1-NPN from recombinant EoblOBP6)
Readout kind: binding ability to EoblOBP6 in words

// known answers, use as guide
# Compound, Tested system, binding ability to EoblOBP6 in words
measured = [
    ("C=CC(C)(O)CCC=C(C)CCC=C(C)C (mixture of isomers)", "EoblOBP6 (Ectropis obliqua, UniProt A0A1L2BL92)", "high binding ability"),
    ("CCCCCCO", "EoblOBP6 (Ectropis obliqua, UniProt A0A1L2BL92)", "could hardly bind"),
    ("CCCCCCCCCC=O", "EoblOBP6 (Ectropis obliqua, UniProt A0A1L2BL92)", "could hardly bind"),
    ("C=C/C(C)=C/C/C=C(\\C)CCC=C(C)C", "EoblOBP6 (Ectropis obliqua, UniProt A0A1L2BL92)", "high binding ability"),
    ("CC/C=C\\CCO [(Z)-3-hexenol]", "EoblOBP6 (Ectropis obliqua, UniProt A0A1L2BL92)", "could hardly bind"),
]

Here is another compound to look at.
May I ask what binding ability to EoblOBP6 in words has been recorded for CCCCCCOC(C)=O [Hexyl acetate] ?
could hardly bind
